screen value listing for selected variants.
B1: MBOAT1 peptide 17-32 (Lysophospholipid acyltransferase 1), 16-mer library wild type / NSP3 ADRP (ORF1ab Nsp3b ADRP, residues 1023-1192) (parent)
chain 1: STYLHPLSELLGIPLD
chain 2: not shown

Variants of: B1
Details: with NSP3 ADRP (ORF1ab Nsp3b ADRP, residues 1023-1192); bait immobilised on MaxiSorp plates (10 µg), library pre-cleared on GST, 2 h binding at 4 °C, five washes; one round per day, days 1-4; value from days 2 and 3; keep out of graded; scale: average fractional NGS count over selection days 2 and 3
API doc: respond with a numeric literal and nothing else, no unit.

chain 1 G12M	0.000127
chain 1 E9R	0
chain 1 L10F	0.00233
chain 1 Y3D	0.000184
chain 1 I13T	3.35e-05
chain 1 L4H	0.000101

Reported screen value for chain 1 L15I : what is it? 0.000505

Proceed to chain 1 L11N 2.27e-05

Follow-up item: chain 1 L10N 1.09e-05
